# experiment.notes: Acute toxicity (M) LD 50
# condition.description: in vivo; mouse, SC
quantity: LD50 (mg/kg)
Field: numeric (mg/kg). Do not append units.

Suppose we examine the compound O=C([O-])C1N=C(c2ccccc2)c2cc(Cl)ccc2NC1=O.[K+] (stereo not shown) ; what LD50 value has been reported?
450

---

# Test system: mice
# experiment.notes: Anti-convulsant activity (anti-pentetrazole) (mice)
# Assay type: in vivo
# condition.description: mouse, PO; pentetrazole 125 mg./kg. IP; read-out: Anti-pentetrazole, 50% effective dose
Below is a list of entries, each paired with its recorded ED50 value.
Field: numeric (mg/kg). Do not append units.

>  <molecule>
O=C(O)C1N=C(c2ccccc2)c2cc(Cl)ccc2NC1=O.[K+].[K+].[OH-].[OH-] (centres unmarked)

>  <units.text>
mg/kg

>  <ED50>
1.7

$$$$

Suppose we examine the molecule O=C([O-])C1N=C(c2ccccc2)c2cc(Cl)ccc2NC1=O.[K+] (centres unmarked) ; what ED50 value has been reported?
1.65

Suppose we examine the molecule CN1C(=O)CN=C(c2ccccc2)c2cc(Cl)ccc21 [Diazepame, reference compound] ; what ED50 value has been reported?
1.7

---

# Test system: mice
# experiment.notes: Traction test (mice), myorelaxant activity
# Type: in vivo
# condition.description: Mus musculus, po, read-out: Traction, 50% effective dose
Counter-ions that a name gives are not always drawn.
Lab note: cut-off is 3 mg/kg. Strictly less in ED50 is 1.0. Exactly 3 mg/kg or more is 0.0.

Before answering, review these 6 worked examples.
>  <compound>
CCOC(=O)C1N=C(c2ccccc2)c2cc(Cl)ccc2NC1=O (centres unmarked)

>  <label>
0.0

$$$$
>  <compound>
CCN(CC)CCNC(=O)C1N=C(c2ccccc2)c2cc(Cl)ccc2NC1=O (centres unmarked)

>  <label>
0.0

$$$$
>  <compound>
CN1C(=O)C(C(=O)O)N=C(c2ccccc2)c2cc(Cl)ccc21.[K+].[K+].[OH-].[OH-] (centres unmarked)

>  <label>
0.0

$$$$
>  <compound>
O=C(O)C1N=C(c2ccccc2)c2cc(Cl)ccc2NC1=O.[K+].[K+].[OH-].[OH-] (centres unmarked)

>  <label>
1.0

$$$$
>  <compound>
O=C(O)C1N=C(c2ccccc2)c2ccccc2NC1=O (centres unmarked) [4338 CB, potassium salt]

>  <label>
0.0

$$$$
>  <compound>
O=C([O-])C1N=C(c2ccccc2)c2cc(Cl)ccc2NC1=O.[K+] (centres unmarked)

>  <label>
1.0

$$$$

Dear colleague, could you confirm whether ED50 of O=C(O)C1N=C(c2ccccc2)c2ccccc2NC1=O.[K+].[K+].[OH-].[OH-] (centres unmarked) falls below 3 mg/kg? Thanks.
0.0

---

Below is a list of entries, each paired with its recorded ED50 value.
# System: mice
# experiment.notes: Anti-convulsant activity (anti-pentetrazole) (mice)
# Assay type: in vivo
# condition.description: mouse, PO; pentetrazole 125 mg./kg. IP; read-out: Anti-pentetrazole, 50% effective dose
Structures can show the parent of a compound that is named as a salt.
Field: numeric (mg/kg). Do not append units.

# example entries with known answers
>  <compound>
CNC1=Nc2ccc(Cl)cc2C(c2ccccc2)=[N+]([O-])C1 [Chlordiazepoxide, reference compound]

>  <units.text>
mg/kg

>  <ED50>
5

$$$$
>  <compound>
CN1C(=O)C(C(=O)O)N=C(c2ccccc2)c2cc(Cl)ccc21.[K+].[K+].[OH-].[OH-] (stereo not drawn) [4350 CB]

>  <units.text>
mg/kg

>  <ED50>
7.5

$$$$
>  <compound>
O=C(O)C1N=C(c2ccccc2)c2cc([N+](=O)[O-])ccc2NC1=O.[K+].[K+].[OH-].[OH-] (stereo not drawn) [4335 CB]

>  <units.text>
mg/kg

>  <ED50>
0.44

$$$$
>  <compound>
O=C(O)C1N=C(c2ccccc2)c2cc([N+](=O)[O-])ccc2NC1=O (stereo not drawn) [4336 CB, potassium salt]

>  <units.text>
mg/kg

>  <ED50>
0.31

$$$$
>  <compound>
O=C1CN=C(c2ccccc2)c2cc(Cl)ccc2N1 [Nor-diazepame, reference compound]

>  <units.text>
mg/kg

>  <ED50>
2.9

$$$$

Suppose we examine the compound CCOC(=O)C1N=C(c2ccccc2)c2cc(Cl)ccc2NC1=O (stereo not drawn) [4279 CB] ; what ED50 value has been reported?
10

---

# Tested on: rat
# experiment.notes: Spontaneous motor activity in the rat
# Assay type: in vivo
# condition.description: Rattus norvegicus, po, read-out: Spontaneous motor activity, 50% effective dose
Structures can show the parent of a compound that is named as a salt.
quantity: ED50 (mg/kg)
Field: numeric (mg/kg). Do not append units.

# example entries with known answers
>  <compound>
CCOC(=O)C1N=C(c2ccccc2)c2cc(Cl)ccc2NC1=O (stereo not shown)

>  <ED50 (mg/kg)>
100

$$$$
>  <compound>
O=C1CN=C(c2ccccc2)c2cc(Cl)ccc2N1 [Nor-diazepame, reference compound]

>  <ED50 (mg/kg)>
50

$$$$

Suppose we examine the compound O=C(O)C1N=C(c2ccccc2)c2cc([N+](=O)[O-])ccc2NC1=O (stereo not shown) [4336 CB, potassium salt] ; what ED50 value has been reported?
50

Suppose we examine the compound CN1C(=O)CN=C(c2ccccc2)c2cc(Cl)ccc21 [Diazepame, reference compound] ; what ED50 value has been reported?
25

Suppose we examine the compound O=C(O)C1N=C(c2ccccc2)c2cc([N+](=O)[O-])ccc2NC1=O.[K+].[K+].[OH-].[OH-] (stereo not shown) ; what ED50 value has been reported?
25

Suppose we examine the compound O=C([O-])C1N=C(c2ccccc2)c2cc(Cl)ccc2NC1=O.[K+] (stereo not shown) ; what ED50 value has been reported?
50

---

# System: mice
# experiment.notes: Anti-convulsant activity (electric shock) (mice)
# Assay type: in vivo
# condition.description: Mus musculus, po, read-out: Electric shock, 50% effective dose
Structures can show the parent of a compound that is named as a salt.
Lab note: cut-off is 5 mg/kg. Strictly less in ED50 is YES. Exactly 5 mg/kg or more is NO.

Before answering, review these 5 worked examples.
>  <compound>
O=C1CN=C(c2ccccc2)c2cc(Cl)ccc2N1 [Nor-diazepame, reference compound]

>  <label>
NO

$$$$
>  <compound>
CCN(CC)CCNC(=O)C1N=C(c2ccccc2)c2cc(Cl)ccc2NC1=O (centres unmarked)

>  <label>
NO

$$$$
>  <compound>
O=C(O)C1N=C(c2ccccc2)c2cc(Cl)ccc2NC1=O.[K+].[K+].[OH-].[OH-] (centres unmarked)

>  <label>
YES

$$$$
>  <compound>
O=C(O)C1N=C(c2ccccc2)c2cc([N+](=O)[O-])ccc2NC1=O (centres unmarked) [4336 CB, potassium salt]

>  <label>
YES

$$$$
>  <compound>
Cc1ccc2c(c1)C(c1ccccc1)=NC(C(=O)O)C(=O)N2.[K+].[K+].[OH-].[OH-] (centres unmarked)

>  <label>
NO

$$$$

Dear colleague, could you confirm whether ED50 of O=C(O)C1N=C(c2ccccc2)c2cc([N+](=O)[O-])ccc2NC1=O.[K+].[K+].[OH-].[OH-] (centres unmarked) falls below 5 mg/kg? Thanks.
YES

Dear colleague, could you confirm whether ED50 of CCOC(=O)C1N=C(c2ccccc2)c2cc(Cl)ccc2NC1=O (centres unmarked) falls below 5 mg/kg? Thanks.
NO

---

Below is a list of entries, each paired with its recorded ED50 value.
# System: mouse
# experiment.notes: Spontaneous motor activity in the mouse
# Assay type: in vivo
# condition.description: Mus musculus, po, read-out: Spontaneous motor activity, 50% effective dose
Structures can show the parent of a compound that is named as a salt.
Field: numeric (mg/kg). Do not append units.

# example entries with known answers
>  <compound>
O=C1CN=C(c2ccccc2)c2cc(Cl)ccc2N1 [Nor-diazepame, reference compound]

>  <ED50 (mg/kg)>
50

$$$$
>  <compound>
Cc1ccc2c(c1)C(c1ccccc1)=NC(C(=O)O)C(=O)N2.[K+].[K+].[OH-].[OH-] (stereo not shown) [4339 CB]

>  <ED50 (mg/kg)>
10

$$$$
>  <compound>
O=C(O)C1N=C(c2ccccc2)c2cc([N+](=O)[O-])ccc2NC1=O (stereo not shown) [4336 CB, potassium salt]

>  <ED50 (mg/kg)>
5

$$$$

Attention now turns to another entry.
Suppose we examine the compound O=C(O)C1N=C(c2ccccc2)c2ccccc2NC1=O (stereo not shown) [4338 CB, potassium salt] ; what ED50 value has been reported?
10

---

Below is a list of entries, each paired with its recorded LD50 value.
# experiment.notes: Acute toxicity (M) LD 50
# condition.description: in vivo; mouse, IP
Field: numeric (mg/kg). Do not append units.

# example entries with known answers
>  <compound>
O=C(O)C1N=C(c2ccccc2)c2cc(Cl)ccc2NC1=O.[K+].[K+].[OH-].[OH-] (stereo not drawn)

>  <LD50 [mg/kg]>
250

$$$$
>  <compound>
O=C([O-])C1N=C(c2ccccc2)c2cc(Cl)ccc2NC1=O.[K+] (stereo not drawn)

>  <LD50 [mg/kg]>
310

$$$$

Attention now turns to another entry.
Suppose we examine the compound CNC1=Nc2ccc(Cl)cc2C(c2ccccc2)=[N+]([O-])C1 [Chlordiazepoxide, reference compound] ; what LD50 value has been reported?
80
